Assay: MultiTox-Fluor Cytotoxicity Assay - LYMP1-003 - Live Cells (AID 962);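 further: cells exposed to compound for 16 hours at 37 °C; 0% = DMSO only and full loss = 92 µM tetraoctylammonium bromide; cytotoxic hits lower the live-cell protease signal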
Details: LYMP1-003 lymphoblastoid cells, MultiTox-Fluor live-cell protease fluorescence; series mostly up to 92.2 µM
The source made the active and inactive calls. The call rests on the fitted dose curve; in most records, active means well fitted cell-killing curve with a large enough effect; inconclusive means small, poorly fitted or top-dose-only effect; inactive means flat fitted curve, though single readings scatter.
readout kind: outcome

Some entries whose results are on file:
compound: Cc1ccc([N+](=O)[O-])cc1
outcome: inactive
//
compound: Nc1ccc([N+](=O)[O-])cc1[N+](=O)[O-]
outcome: inactive
//
compound: CC(C)OC(=O)Cc1ccccc1
outcome: inactive
//
compound: C/C=C/CC#N
outcome: inactive
//
compound: ClCCCCl
outcome: inactive

# outcome lookup, item `O=[N+]([O-])c1cccc(O)c1`
inactive

Now the compound `c1ccc(NNc2ccccc2)cc1`
inactive

Now the compound CC(C#N)CCC#N (stereo unspecified)
inactive

Now the compound `O=[N+]([O-])c1cccc(CCl)c1`
inactive

###

Assay: qHTS assay for small molecule activators of the p53 signaling pathway (AID 651743); further: % of control where 0% means no effect
Conditions: HCT-116 p53RE-bla, beta-lactamase FRET ratio, 16 h; hits give high values
Inconclusive results are not listed. Activity calls are given as the source filed them. The call rests on the fitted dose curve; in most records, active means well fitted activation curve with a large enough effect in the signal ratio (not every such curve was filed as active); inconclusive means small, poorly fitted or top-dose-only effect, or a change in a side signal; inactive means flat fitted curve, though single readings scatter; the % refers to the signal ratio.
Measured activation by item

Some entries whose results are on file:
molecule: CC(C)OC(=O)Cc1ccccc1
activation: -2.84% (inactive)
//
molecule: CCBr
activation: 1.32% (inactive)
//
molecule: Cc1cccc(N)c1C
activation: 12.1% (inactive)
//
molecule: C=C(C)CCl
activation: -3.39% (inactive)
//
molecule: Cl/C=C/CCl
activation: -2.05% (inactive)

# activation lookup, item `Nc1cc(Cl)ccc1O`
-1.47% (inactive)

Now the molecule `Cc1cnc[nH]1`
-6.55% (inactive)

Now the molecule `C=CCc1cc(OC)c2c(c1)OCO2`
-0.222% (inactive)

Now the molecule `Cc1ccccc1[N+](=O)[O-]`
1.69% (inactive)

Now the molecule CCCCC(CC)COC(=O)c1ccc(C(=O)OCC(CC)CCCC)c(C(=O)OCC(CC)CCCC)c1 (stereo unspecified)
-1.5% (inactive)

Now the molecule `O=C(O)C(Cl)(Cl)Br`
-0.303% (inactive)

Now the molecule `N#C/C(N)=C(/N)C#N`
1.55% (inactive)

###

Experiment: qHTS assay for small molecule agonists of the antioxidant response element (ARE) signaling pathway measured by Nrf2-dependant transcriptional activity - cell viability counter screen (AID 720653); further: on the % scale 0 is the no-effect control and ±100 the full control effect
Settings: ARE-bla HepG2 viability, CellTiter-Glo ATP luminescence, 16 h; hits give low values
Inconclusive results are not listed.
readout kind: max response (%)
// note: answer is a bare numeric in %

Some entries whose results are on file:
compound: ClC=CCl
readout kind: max response
reported value: -14.4
--
compound: O=[N+]([O-])c1ccccc1O
readout kind: max response
reported value: 5.01
--
compound: Cc1coc2c1CCC(C)C2 (stereo unspecified)
readout kind: max response
reported value: -1.7
--
compound: CC(C)CON=O
readout kind: max response
reported value: 3.18
--
compound: O=C(O)C(Cl)(Cl)Br
readout kind: max response
reported value: -4.89
--
compound: CCNCC
readout kind: max response
reported value: 14.5

# max response lookup, item `c1ccc2c(c1)CCNC2`
5.02

Now the compound `Nn1cnnc1`
-3.98

Now the compound `[O-][Cl+]O`
3.42

Now the compound c1ccc(C2CO2)cc1 (stereo unspecified)
-5.33

Now the compound `Clc1ccc(C(Cl)(Cl)Cl)c(Cl)c1`
-1.74

Now the compound `O=C(O)CBr`
9.96

Now the compound `S=c1[nH]c2ccccc2[nH]1`
2.67

Now the compound `ClC(Cl)c1ccccc1`
-0.372

Now the compound `Cc1cc(-c2cc(C)c(N)c(C)c2)cc(C)c1N`
-5.77

Now the compound CCCCOCC1CO1 (stereo unspecified)
-2.9

Now the compound `COC(=O)Nc1cccc(OC(=O)Nc2cccc(C)c2)c1`
-11.1

Now the compound CC(Cl)CCl (stereo unspecified)
-12.6

Now the compound C=CCOCC1CO1 (stereo unspecified)
2.37

Now the compound `Oc1cccc(Cl)c1`
-6.82
